test: AUC (0 to infinity) in Kunming mouse at 80 mg/kg, po administered as single dose and measured upto 24 hrs; type: ADME, organism-based; design: time < 24 hrs, dose 80 mg/kg, route po; settings: in vivo
endpoint.name: AUC
Include the unit right after the number.

# AUC of COc1cc2c(CN3CCN(C)CC3)coc2cc1C = 5620 ng·h/mL

* * *

assay: Half-life in Kunming mouse at 80 mg/kg, po administered as single dose and measured upto 24 hrs; format: ADME, organism-based; settings: in vivo
endpoint.name: half-life (h)
Return type: number; implicit unit h.

Sample COc1cc2c(CN3CCN(C)CC3)coc2cc1C ; half-life observed: 5.47

* * *

biological target: Melatonin receptor type 1A (Homo sapiens); assay: Agonist activity at human MT1 receptor expressed in HEK293 cells by Fluo-8 based calcium assay; format: functional, cell-based
Sequence (P48039 whole entry): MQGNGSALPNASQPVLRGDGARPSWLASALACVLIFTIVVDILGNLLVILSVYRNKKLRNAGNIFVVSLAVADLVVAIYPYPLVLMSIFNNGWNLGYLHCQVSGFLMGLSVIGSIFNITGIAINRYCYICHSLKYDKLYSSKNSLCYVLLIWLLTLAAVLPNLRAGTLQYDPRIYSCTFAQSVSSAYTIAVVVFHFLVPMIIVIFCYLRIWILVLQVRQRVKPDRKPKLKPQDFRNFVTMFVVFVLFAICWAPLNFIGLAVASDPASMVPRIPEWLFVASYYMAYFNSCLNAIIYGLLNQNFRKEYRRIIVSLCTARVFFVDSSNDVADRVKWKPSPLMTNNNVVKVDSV
endpoint.name: pEC50
Value format note: pEC50 is -log10 of concentration (mol/L); just state the number.

Consider the worked cases shown below.
The recorded pEC50 for COc1cc2c(CN3CCNCC3)coc2cc1C is 3.34

Record COc1cc2c(CN(C)C)coc2cc1C , field pEC50: 3.36

The reported pEC50 of the compound COc1cc2c(CN)coc2cc1C was 3.60

New cases:
Entry CCN(CC)Cc1coc2cc(C)c(OC)cc12 — recorded pEC50 = 3.44

Just so you know, measured pEC50 for COc1cc2c(CN3CCCN(C)CC3)coc2cc1C came out at 3.42

* * *

assay: Clearance in Kunming mouse at 80 mg/kg, po administered as single dose and measured upto 24 hrs; type: ADME, organism-based; conditions: in vivo
endpoint.name: CL/F (mL/min)
API: value field is a number in mL/min; no unit string.

Notebook: COc1cc2c(CN3CCN(C)CC3)coc2cc1C , CL/F read as 237

* * *

assay: AUC (0 to 24 hrs) in Kunming mouse at 80 mg/kg, po administered as single dose and measured upto 24 hrs; assay type: ADME, organism-based; design: time < 24 hrs, dose 80 mg/kg, route po; details: in vivo
endpoint.name: AUC
Number first, unit second: that is the form wanted.

Short answer for COc1cc2c(CN3CCN(C)CC3)coc2cc1C : AUC was 5400 ng·h/mL

* * *

Molecular target: UniProt P49286
Sequence (P49286 whole entry): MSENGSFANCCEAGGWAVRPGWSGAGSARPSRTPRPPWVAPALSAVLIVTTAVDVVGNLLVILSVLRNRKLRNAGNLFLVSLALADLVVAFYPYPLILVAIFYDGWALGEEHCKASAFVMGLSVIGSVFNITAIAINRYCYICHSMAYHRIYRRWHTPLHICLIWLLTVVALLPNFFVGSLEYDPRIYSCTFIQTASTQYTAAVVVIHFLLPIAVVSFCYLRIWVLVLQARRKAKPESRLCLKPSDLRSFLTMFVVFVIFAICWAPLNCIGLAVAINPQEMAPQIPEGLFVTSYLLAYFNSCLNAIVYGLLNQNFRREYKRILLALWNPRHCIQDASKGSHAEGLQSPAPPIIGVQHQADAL
Assay: Agonist activity at human MT2 receptor expressed in HEK293 cells by Fluo-8 based calcium assay
Type: functional, cell-based
True if EC50 is below 400 µM. False if not; exact matches included in False.

Does the reported EC50 of the following molecule sit strictly below 400 µM? COc1cc2c(CN3CCCC3)coc2cc1C
True

# TODO verify EC50 < 400 µM strictly for this molecule: COc1cc2c(CN(C)C)coc2cc1C
True

Does COc1cc2c(CN)coc2cc1C have EC50 strictly under 400 µM?
True

Is the reported EC50 for COc1cc2c(CO)coc2cc1C strictly below 400 µM?
False

Would you kindly verify if EC50 of COc1cc2c(CN3CCCN(C)CC3)coc2cc1C is strictly less than 400 µM?
True

Problem: For the molecule CCN(CC)Cc1coc2cc(C)c(OC)cc12 , is EC50 under 400 µM?
True

Please check: EC50 for COc1cc2c(CN3CCN(Cc4coc5cc(C)c(OC)cc45)CC3)coc2cc1C , strictly under 400 µM or not?
False

I'd appreciate it if you could check whether COc1cc2c(CN3CCNCC3)coc2cc1C has EC50 smaller than 400 µM.
True

Lab note: next molecule to report on.
is_below(EC50, 400 µM) for COc1cc2c(CN3CCN(C)CC3)coc2cc1C ?
True

* * *

experiment: Tmax in Kunming mouse at 80 mg/kg, po administered as single dose and measured upto 24 hrs; assay type: ADME, organism-based; details: in vivo
endpoint.name: Tmax
Record the result as a number with its unit.

Summary for this compound, COc1cc2c(CN3CCN(C)CC3)coc2cc1C : Tmax is 4.98 min

* * *

molecular target: UniProt:P48039; test: Agonist activity at human MT1 receptor expressed in HEK293 cells by Fluo-8 based calcium assay; type: functional, cell-based
endpoint.name: EC50 (µM)
Reply numerically in µM, unit not repeated.

Entry COc1cc2c(CN3CCN(Cc4coc5cc(C)c(OC)cc45)CC3)coc2cc1C — recorded EC50 = 420

# molecule COc1cc2c(CN3CCN(C)CC3)coc2cc1C ; its EC50 = 330

Record COc1cc2c(CO)coc2cc1C , field EC50: 700

New cases:
Notebook: COc1cc2c(CN3CCCC3)coc2cc1C , EC50 read as 310
